System: M14 melanoma
Assay: NCI tumour cell line growth inhibition, 48 h
The following compounds are listed with their measured TGI values.
Numbers only here, please. The scale is µM.

Some compounds with recorded TGI:
INSERT INTO assay_data (compound, unitsymbol, recordedmeasurement) VALUES
  ('COc1ccc(NC(=O)O[C@H]2[C@H](O[C@H]3[C@@H](O)COC(O[C@H]4C[C@H]5[C@@H]6CC=C7C[C@@H](O)CC[C@]7(C)[C@H]6CC[C@]5(C)[C@H]4[C@H](C)C(=O)CCC(C)C)[C@@H]3OC(C)=O)OC[C@@H](O)[C@@H]2O)cc1 (stereo partly drawn)', 'µM', 0.0203),
  ('CC1OC(OC2C(O[C@@H]3C[C@@H]4CC[C@@H]5[C@H](CC[C@]6(C)[C@@H]7[C@H](C[C@@H]56)O[C@]5(CC[C@@H](C)CO5)[C@H]7C)[C@@]4(C)C[C@H]3O)OC(CO)C(OC3OC(CO)C(O)C(O)C3O)C2O)C(O)C(O)C1O (stereo partly drawn)', 'µM', 3.07),
  ('O=C1N[C@@H]2c3c(Br)sc(Br)c3C(=O)[C@@H]2N1', 'µM', 16.5),
  ('Cn1c2c(cc(-c3ccccc3)c1=O)COc1ccccc1-2', 'µM', 94.4);

// next entry
Query the reported TGI for M14 melanoma; item: `CC(=O)/C=C/C1=C(c2ccsc2)c2ccccc2CC1`
37.1
